meta.source: patent US12286443B2

molecular target: JAK1 (Homo sapiens, UniProt P23458)
Sequence (P23458 whole entry): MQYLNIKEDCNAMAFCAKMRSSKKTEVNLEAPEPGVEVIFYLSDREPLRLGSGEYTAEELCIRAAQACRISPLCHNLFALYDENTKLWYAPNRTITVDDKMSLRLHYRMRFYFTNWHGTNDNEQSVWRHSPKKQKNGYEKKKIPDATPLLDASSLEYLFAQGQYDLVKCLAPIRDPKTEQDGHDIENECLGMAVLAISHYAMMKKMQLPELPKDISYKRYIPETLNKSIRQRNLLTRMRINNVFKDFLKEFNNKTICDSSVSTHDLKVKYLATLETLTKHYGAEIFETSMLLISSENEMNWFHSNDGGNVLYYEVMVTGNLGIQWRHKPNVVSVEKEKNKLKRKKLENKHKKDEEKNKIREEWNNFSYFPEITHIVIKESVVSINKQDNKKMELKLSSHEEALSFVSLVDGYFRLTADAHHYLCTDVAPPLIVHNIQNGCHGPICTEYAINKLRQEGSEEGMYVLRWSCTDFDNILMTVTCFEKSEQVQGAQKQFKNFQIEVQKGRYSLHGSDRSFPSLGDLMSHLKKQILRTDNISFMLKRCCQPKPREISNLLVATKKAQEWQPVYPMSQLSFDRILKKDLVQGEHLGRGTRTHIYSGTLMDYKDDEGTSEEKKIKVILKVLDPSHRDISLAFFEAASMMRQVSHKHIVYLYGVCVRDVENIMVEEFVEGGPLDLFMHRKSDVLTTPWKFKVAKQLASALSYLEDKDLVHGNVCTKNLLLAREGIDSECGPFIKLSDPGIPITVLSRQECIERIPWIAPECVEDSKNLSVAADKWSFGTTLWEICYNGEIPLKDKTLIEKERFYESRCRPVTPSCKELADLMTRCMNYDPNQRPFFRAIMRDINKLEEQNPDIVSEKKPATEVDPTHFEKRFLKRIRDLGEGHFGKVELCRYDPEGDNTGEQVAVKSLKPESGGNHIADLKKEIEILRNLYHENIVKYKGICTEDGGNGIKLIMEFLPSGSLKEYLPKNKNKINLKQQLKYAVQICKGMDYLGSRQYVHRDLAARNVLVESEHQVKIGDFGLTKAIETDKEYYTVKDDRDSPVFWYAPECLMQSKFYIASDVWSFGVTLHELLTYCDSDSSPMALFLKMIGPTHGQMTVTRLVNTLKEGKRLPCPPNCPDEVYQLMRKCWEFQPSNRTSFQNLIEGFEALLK
pIC50: −log10 of the molar value.
Listed here are molecules together with their documented pIC50.

As a guide, the following entries are already answered.
CN(C)S(=O)(=O)CCNC(=O)c1noc2c1CN(c1ncnc3[nH]ccc13)CC2 [Compound 156] : 6.30 to 7.00
O=C(NCCc1ccccn1)c1noc2c1CN(c1ncnc3[nH]ccc13)CC2 [Compound 153] : 5.70 to 6.30
O=C(NC1CC1C(F)(F)F)c1noc2c1CN(c1ncnc3[nH]ccc13)CC2 (stereo not shown) [Compound 182] : > 7.00

Continue with the molecule presented below.
The molecule O=C(NCCS(=O)(=O)N1CCC1)c1noc2c1CN(c1ncnc3[nH]ccc13)CC2 [Compound 134] on JAK1 (Homo sapiens, UniProt P23458): pIC50 was 5.70 to 6.30
